Quick list: inhibition per entry.
- studyTarget: EGFR (human)
- conditionSet: nci-h1975, concentration not given here

smilesrepr=Cn1cc(C2=C(c3ccc(Cl)cc3Cl)C(=O)NC2=O)c2ccccc21 studytarget="EGFR (human)" result=37%
smilesrepr=CC(C)(C)c1nc2c3ccc(F)cc3c3c(=O)[nH]ccc3c2[nH]1 studytarget="EGFR (human)" result="< 25%"

Then there is this compound:
Asked: Reported inhibition for O=c1ncn2nc(Sc3ccc(F)cc3F)ccc2c1-c1c(Cl)cccc1Cl : what is it?
Given back: < 25%

---

- studyTarget: EGFR (human) (UniProt P00533)
- Sequence (P00533 whole entry, looked up): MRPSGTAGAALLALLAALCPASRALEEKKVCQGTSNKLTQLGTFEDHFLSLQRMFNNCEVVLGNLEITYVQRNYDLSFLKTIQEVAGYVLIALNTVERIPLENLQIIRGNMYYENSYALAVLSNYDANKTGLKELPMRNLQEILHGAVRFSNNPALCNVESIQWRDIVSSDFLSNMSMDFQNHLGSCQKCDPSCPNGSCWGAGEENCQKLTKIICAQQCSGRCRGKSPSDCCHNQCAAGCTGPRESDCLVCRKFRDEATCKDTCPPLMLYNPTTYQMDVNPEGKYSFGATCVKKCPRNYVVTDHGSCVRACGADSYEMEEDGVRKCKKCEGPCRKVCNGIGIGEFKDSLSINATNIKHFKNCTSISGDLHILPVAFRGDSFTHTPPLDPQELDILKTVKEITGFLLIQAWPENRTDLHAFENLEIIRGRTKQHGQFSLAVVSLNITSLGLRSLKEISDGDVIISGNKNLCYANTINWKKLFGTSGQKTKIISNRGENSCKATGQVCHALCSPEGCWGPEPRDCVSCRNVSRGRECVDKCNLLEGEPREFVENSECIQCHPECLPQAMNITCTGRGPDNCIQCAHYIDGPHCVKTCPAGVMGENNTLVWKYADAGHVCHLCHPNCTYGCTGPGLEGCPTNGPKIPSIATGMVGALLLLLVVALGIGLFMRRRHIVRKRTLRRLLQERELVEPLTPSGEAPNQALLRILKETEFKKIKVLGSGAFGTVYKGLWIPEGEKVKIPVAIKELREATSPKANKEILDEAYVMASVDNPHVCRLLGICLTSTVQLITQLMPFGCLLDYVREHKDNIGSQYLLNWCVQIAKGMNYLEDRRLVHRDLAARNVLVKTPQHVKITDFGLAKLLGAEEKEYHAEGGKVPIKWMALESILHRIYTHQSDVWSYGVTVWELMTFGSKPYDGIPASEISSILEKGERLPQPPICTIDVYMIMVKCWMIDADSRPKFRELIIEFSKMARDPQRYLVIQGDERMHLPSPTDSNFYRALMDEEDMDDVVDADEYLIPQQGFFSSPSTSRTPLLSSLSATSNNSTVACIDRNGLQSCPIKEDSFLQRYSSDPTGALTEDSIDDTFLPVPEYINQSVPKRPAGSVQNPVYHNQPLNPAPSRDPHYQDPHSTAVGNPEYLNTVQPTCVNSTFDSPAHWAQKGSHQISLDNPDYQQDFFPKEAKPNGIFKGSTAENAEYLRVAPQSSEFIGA
- conditionSet: nci-h1975, concentration not given here
attributeMeasured: inhibition (%)

smilesrepr=CC(C)(C)n1nc(-c2cccc3ccccc23)c2c(N)ncnc21 studytarget="EGFR (human) (UniProt P00533)" numericreadout=60

[A] Cc1cc(Nc2cc(N3CCN(C)CC3)nc(Sc3ccc(NC(=O)C4CC4)cc3)n2)[nH]n1
[B] Cc1cc(Nc2ncc3cc(-c4c(Cl)cccc4Cl)c(=O)n(C)c3n2)ccc1F
Asked: Higher inhibition: A or B ? # answer = label of selected item
Given back: B

---

Reported inhibition values are given for each entry in this list.
- studyTarget: EGFR (human)
- conditionSet: nci-h1975, concentration not given here

Previously resolved entries follow.
smilesrepr=Cc1ccc(NC(=O)c2cccc(N(C)C)c2)cc1NC(=O)c1ccc(O)cc1 result="< 25%"
smilesrepr=O=C1Nc2ccc(I)cc2/C1=C\c1cc(Br)c(O)c(Br)c1 result="< 25%"
smilesrepr=Cc1ccc(NC(=O)c2ccc(CN3CCN(C)CC3)cc2)cc1Nc1nccc(-c2cccnc2)n1 result="< 25%"
smilesrepr=OCCC#Cc1nc(-c2ccc(F)cc2)c(-c2ccncc2)n1CCCc1ccccc1 result="< 25%"

Here is another compound to look at.
Asked: Give its inhibition value. Item: c1ccc(-c2n[nH]cc2-c2ccnc3ccccc23)nc1
Given back: < 25%

---

- studyTarget: UniProtKB P00533
- conditionSet: nci-h1975, concentration not given here
attributeMeasured: inhibition

For orientation, consider the following solved cases.
smilesrepr=COc1cc2ncnc(Nc3ccc(OCc4ccccc4)cc3)c2cc1OC result="< 25%"
smilesrepr=COc1cccc(-c2cc(=O)c3ccccc3o2)c1N result="< 25%"

Query compound follows.
Asked: # query: inhibition of entry Cc1cc(C)c(/C=C2\C(=O)Nc3ccc(Cl)cc32)[nH]1
Given back: < 25%
